Quick reference for pIC50 among some compounds
# Tested on: MDA-MB-231
# test.details: Antiproliferative activity against estrogen receptor negative human MDA-MB-231 cells assessed as inhibition of cell viability by MTT assay
# Assay type: functional, cell-based
pIC50: −log10 of the molar value.
observable: pIC50

> print(dat)
                                   compound  observable  quantitative.readout
1  CCN(CC)CCOc1ccccc1/C(=C1/CC(C)(C)Oc2cc(OC)ccc21)c1ccccc1       pIC50                  4.92
2  COc1ccc2c(c1)OC(C)(C)CC2C(c1ccccc1)c1ccccc1OCCN1CCCCC1 (stereo not given)       pIC50                  5.04
3  COc1ccc2c(c1)OC(C)(C)C/C2=C(\c1ccccc1)c1ccccc1O       pIC50                  4.92
4  COc1ccc2c(c1)OC(C)(C)C/C2=C(\c1ccccc1)c1ccccc1OCC(C)N(C)C (stereo not given)       pIC50                  5.05
5  COc1ccc2c(c1)OC(C)(C)C/C2=C(\c1ccccc1)c1ccc(O)cc1       pIC50                  5.02

* * *

Quick reference for IC50 among some compounds
# Tested on: MDA-MB-231
# test.details: Antiproliferative activity against estrogen receptor negative human MDA-MB-231 cells assessed as inhibition of cell viability by MTT assay
# Type: functional, cell-based
observable: IC50 (µM)

> print(dat)
                                   compound  subject.of.test  observable  unit  quantitative.readout
1  CCN(CC)CCOc1ccccc1C(c1ccccc1)C1CC(C)(C)Oc2cc(OC)ccc21 (centres undefined)       MDA-MB-231        IC50    µM                     9
2  CCN(CC)CCOc1ccc(C(c2ccccc2)C2CC(C)(C)Oc3cc(OC)ccc32)cc1 (centres undefined)       MDA-MB-231        IC50    µM                  11.5
3  COc1ccc2c(c1)OC(C)(C)CC2C(c1ccccc1)c1ccccc1OCCN(C)C (centres undefined)       MDA-MB-231        IC50    µM                   8.5
4  COc1ccc2c(c1)OC(C)(C)CC2C(c1ccccc1)c1ccc(O)cc1 (centres undefined)       MDA-MB-231        IC50    µM                   9.5
5  COc1ccc2c(c1)OC(C)(C)CC2C(c1ccccc1)c1ccc(OCCN2CCCCC2)cc1 (centres undefined)       MDA-MB-231        IC50    µM                   8.5
6  COc1ccc2c(c1)OC(C)(C)C/C2=C(\c1ccccc1)c1ccccc1OCCN1CCCCC1       MDA-MB-231        IC50    µM                    12
7  COc1ccc2c(c1)OC(C)(C)CC2C(c1ccccc1)c1ccccc1OCC(C)N(C)C (centres undefined)       MDA-MB-231        IC50    µM                    11
8  COc1ccc2c(c1)OC(C)(C)CC2C(c1ccccc1)c1ccccc1OCCN1CCCC1 (centres undefined)       MDA-MB-231        IC50    µM                    20
9  COc1ccc2c(c1)OC(C)(C)CC2C(c1ccccc1)c1ccc(OCCN2CCCC2)cc1 (centres undefined)       MDA-MB-231        IC50    µM                   9.6
